tested on: A549/ATCC NSCLC; assay: NCI-60 one-dose screen, 48 h (100 = growth as untreated, 0 = no growth, -100 = all killed); details: 10 µM unless noted
About 83,000 compounds went through this panel and 20% of them were active in at least one assay; those are over-represented in the sample as a whole.
Binary call on growth: YES from 40% upward, NO beneath that.

Check out these entries, answers already filled in.
INSERT INTO measurements (compound, group) VALUES
  ('COc1ccc(C2=NNC(c3cc(Cc4ccc(O)c(C5CC(c6ccc(OC)cc6)=NN5)c4)ccc3O)C2)cc1 (stereo not drawn)', 'NO'),
  ('COc1ccc2c(c1)[nH]c(=O)c1c3cc(OC)c(OC)cc3cn21', 'NO'),
  ('COC(=O)CC1=C(C)/C(=C/c2[nH]c(-c3ccc[nH]3)cc2OC)N=C1C', 'NO'),
  ('CCCCCCCC/C=C/CCCCCCCC1=NC(C)(C)CN1CC(C)O (stereo not drawn)', 'NO'),
  ('Cc1nn(-c2ccc(Br)cc2)c2nc3c(nc12)C(=O)C(=O)c1ccccc1-3', 'YES'),
  ('CC[C@@H]1OC(=O)[C@H](C)[C@@H](O[C@H]2C[C@@](C)(OC)[C@@H](O)[C@H](C)O2)[C@H](C)[C@@H](O[C@@H]2O[C@H](C)C[C@H](N(C)C)[C@H]2O)[C@](C)(O)C[C@@H](C)[C@@H]2N[C@@H](COCCOC)O[C@H]([C@H]2C)[C@]1(C)O', 'YES'),
  ('CN(CCOc1ccc(CC2SC(=O)NC2=O)cc1)c1ccccn1 (stereo not drawn)', 'YES');

Enquiry: Quick check: does CSc1ccc2c(c1)N(CCC1CCCCN1C)c1ccccc1S2 (stereo not drawn) have growth greater than or equal to 40%?
Return: YES

---

tested on: ACHN renal; assay: NCI-60 one-dose screen, 48 h (100 = growth as untreated, 0 = no growth, -100 = all killed); settings: 10 µM unless noted
The panel holds about 83,000 compounds, 20% with a hit somewhere; the sample as a whole holds those more often.
RESULT_TYPE: growth (%)
The reply should contain only the number, in %.

INSERT INTO measurements (query_smiles, measured_value) VALUES
  ('O=C(OC[C@H]1O[C@H](OC(=O)c2cc(O)c(O)c(OC(=O)c3cc(O)c(O)c(O)c3)c2)[C@H](OC(=O)c2cc(O)c(O)c(OC(=O)c3cc(O)c(O)c(O)c3)c2)[C@@H](OC(=O)c2cc(O)c(O)c(OC(=O)c3cc(O)c(O)c(O)c3)c2)[C@@H]1OC(=O)c1cc(O)c(O)c(OC(=O)c2cc(O)c(O)c(O)c2)c1)c1cc(O)c(O)c(OC(=O)c2cc(O)c(O)c(O)c2)c1', 24.6);

Kindly consider the entry below.
The compound listed as c1ccc2c(c1)[nH]c1c2cc[n+]2cc3c(cc12)CCCC3 shows growth equal to 66.2

---

system: SNB-75 CNS; experiment: NCI-60 one-dose screen, 48 h; settings: 10 µM unless noted
About 83,000 compounds went through this panel and 20% of them were active in at least one assay; those are over-represented in the sample as a whole. Calls of active or inactive are those of the source. How the source made its calls: active means growth percent below 10; inactive means the rest.
Tick one outcome: yes = active, no = inactive

Solved cases (3 shown):
INSERT INTO results (compound, target_entity, group) VALUES
  ('O=C(OCCBr)c1ccc(Cl)c([N+](=O)[O-])c1', 'SNB-75 CNS', 'no'),
  ('COc1ccc(-c2csc(NC(=O)c3cc(O)c(O)c(O)c3)n2)cc1', 'SNB-75 CNS', 'no'),
  ('Clc1ccc2nc(Cl)c3ccccc3c2c1', 'SNB-75 CNS', 'yes');

Enquiry: Call for entry Cc1cc2cn3c4cccnc4[nH]c(=O)c3c2cc1C :
Return: no

Enquiry: Any idea what this test logged for Clc1ccccc1[C@@H]1C[C@@H]2Cc3cc(Br)c4ccccc4c3N1O2 ?
Return: yes

Enquiry: Lab log entry: O=C(Nc1cccc(C(F)(F)F)c1)Nc1ccc(OCc2nnc(-c3ccc(Cl)cc3)o2)c(F)c1 — outcome as called in the assay?
Return: no

Enquiry: Record request — test call for C[n+]1c2ccccc2c(NC2CCNCC2)c2[nH]c3ccccc3c21
Return: yes

Enquiry: // outcome(item) with item = O=C(c1ccccc1)c1ccccc1Cl
Return: no
